Reference for the values: patent US11629201B2

Test system: PC-3 PIP/flu tumor-bearing mice
procedure-text: Biodistribution studies in PC-3 PIP/flu tumor-bearing mice
particulars: 96 h p.i.
Quick list: Intestines per entry.
assay-endpoint: Intestines (% IA/g)

[[record]]
molecule = "O=C(O)CCC(NC(=O)NC(CCCCNC(=O)C(Cc1ccc2ccccc2c1)NC(=O)C1CCC(n2cc(CC(NC(=O)CN3CCN(CC(=O)O)CCN(CC(=O)O)CCN(CC(=O)O)CC3)C(=O)NC(CCCCNC(=O)CCCc3ccc(I)cc3)C(=O)O)nn2)CC1)C(=O)O)C(=O)O (stereo not shown) [^177Lu-PSMA-ALB-01, metal not drawn]"
measured_result = 1.05

[[record]]
molecule = "O=C(O)CCC(NC(=O)NC(CCCCNC(=O)C(Cc1ccc2ccccc2c1)NC(=O)C1CCC(CNC(=O)C(CCCCNC(=O)CN2CCN(CC(=O)O)CCN(CC(=O)O)CCN(CC(=O)O)CC2)NC(=O)CCCCCCC(=O)NC(CCCCNC(=O)CCCc2ccc(I)cc2)C(=O)O)CC1)C(=O)O)C(=O)O (stereo not shown) [^177Lu-PSMA-ALB-04, metal not drawn]"
measured_result = 2.36

[[record]]
molecule = "O=C(O)CCC(NC(=O)NC(CCCCNC(=O)C(Cc1ccc2ccccc2c1)NC(=O)C1CCC(CNC(=O)C(CCCCNC(=O)CCCc2ccc(I)cc2)NC(=O)CN2CCN(CC(=O)O)CCN(CC(=O)O)CCN(CC(=O)O)CC2)CC1)C(=O)O)C(=O)O (stereo not shown) [^177Lu-PSMA-ALB-03, metal not drawn]"
measured_result = 1.21

[[record]]
molecule = "O=C(O)CCC(NC(=O)NC(CCCCNC(=O)C(Cc1ccc2ccccc2c1)NC(=O)C1CCC(CNC(=O)C(CCCCNC(=O)CN2CCN(CC(=O)O)CCN(CC(=O)O)CCN(CC(=O)O)CC2)NC(=O)CC(NC(=O)CC(NC(=O)CCCc2ccc(I)cc2)C(=O)O)C(=O)O)CC1)C(=O)O)C(=O)O (stereo not shown) [^177Lu-PSMA-ALB-05, metal not drawn]"
measured_result = 0.30


###

Test system: PC-3 PIP/flu tumor-bearing mice
procedure-text: Biodistribution studies in PC-3 PIP/flu tumor-bearing mice
particulars: 24 h p.i.; PC-3 PIP tumor
y if Tumor-to-blood is below 3. n if not; exact matches included in n.

[[record]]
molecule = "Cc1ccc(CCCC(=O)NCCCCC(NC(=O)CN2CCN(CC(=O)O)CCN(CC(=O)O)CCN(CC(=O)O)CC2)C(=O)NCC2CCC(C(=O)NC(Cc3ccc4ccccc4c3)C(=O)NCCCCC(NC(=O)NC(CCC(=O)O)C(=O)O)C(=O)O)CC2)cc1 (centres unmarked) [^177Lu-PSMA-ALB-06, metal not drawn]"
system_name = "PC-3 PIP/flu tumor-bearing mice"
label = "n"

[[record]]
molecule = "O=C(O)CCC(NC(=O)NC(CCCCNC(=O)C(Cc1ccc2ccccc2c1)NC(=O)C1CCC(CNC(=O)C(CCCCNC(=O)CN2CCN(CC(=O)O)CCN(CC(=O)O)CCN(CC(=O)O)CC2)NC(=O)CCCCCCC(=O)NC(CCCCNC(=O)CCCc2ccc(I)cc2)C(=O)O)CC1)C(=O)O)C(=O)O (centres unmarked) [^177Lu-PSMA-ALB-04, metal not drawn]"
system_name = "PC-3 PIP/flu tumor-bearing mice"
label = "y"

[[record]]
molecule = "O=C([O-])CN1CCN(CC(=O)[O-])CCN(CC(=O)NCC2CCC(C(=O)N[C@@H](Cc3ccc4ccccc4c3)C(=O)NCCCC[C@H](NC(=O)N[C@@H](CCC(=O)O)C(=O)O)C(=O)O)CC2)CCN(CC(=O)[O-])CC1.[177Lu+3] (some centres unmarked) [^177Lu-PSMA-617, reference compound]"
system_name = "PC-3 PIP/flu tumor-bearing mice"
label = "n"

[[record]]
molecule = "O=C(O)CCC(NC(=O)NC(CCCCNC(=O)C(Cc1ccc2ccccc2c1)NC(=O)C1CCC(CNC(=O)C(CCCCNC(=O)CCCc2ccc(I)cc2)NC(=O)CN2CCN(CC(=O)O)CCN(CC(=O)O)CCN(CC(=O)O)CC2)CC1)C(=O)O)C(=O)O (centres unmarked) [^177Lu-PSMA-ALB-03, metal not drawn]"
system_name = "PC-3 PIP/flu tumor-bearing mice"
label = "n"

[[record]]
molecule = "O=C(O)CCC(NC(=O)NC(CCCCNC(=O)C(Cc1ccc2ccccc2c1)NC(=O)C1CCC(n2cc(CC(NC(=O)CN3CCN(CC(=O)O)CCN(CC(=O)O)CCN(CC(=O)O)CC3)C(=O)NC(CCCCNC(=O)CCCc3ccc(I)cc3)C(=O)O)nn2)CC1)C(=O)O)C(=O)O (centres unmarked) [^177Lu-PSMA-ALB-01, metal not drawn]"
system_name = "PC-3 PIP/flu tumor-bearing mice"
label = "y"


###

Recorded Heart by entry
System: PC-3 PIP/flu tumor-bearing mice
procedure-text: Biodistribution studies in PC-3 PIP/flu tumor-bearing mice
particulars: 24 h p.i.
assay-endpoint: Heart (% IA/g)

[[record]]
compound = "O=C(O)CCC(NC(=O)NC(CCCCNC(=O)C(Cc1ccc2ccccc2c1)NC(=O)C1CCC(CNC(=O)C(CCCCNC(=O)CN2CCN(CC(=O)O)CCN(CC(=O)O)CCN(CC(=O)O)CC2)NC(=O)CCCCCCC(=O)NC(CCCCNC(=O)CCCc2ccc(I)cc2)C(=O)O)CC1)C(=O)O)C(=O)O (stereo not drawn) [^177Lu-PSMA-ALB-04, metal not drawn]"
measured_result = 22.1

[[record]]
compound = "O=C(O)CCC(NC(=O)NC(CCCCNC(=O)C(Cc1ccc2ccccc2c1)NC(=O)C1CCC(CNC(=O)C(CCCCNC(=O)CN2CCN(CC(=O)O)CCN(CC(=O)O)CCN(CC(=O)O)CC2)NC(=O)CC(NC(=O)CC(NC(=O)CC(NC(=O)CCCc2ccc(I)cc2)C(=O)O)C(=O)O)C(=O)O)CC1)C(=O)O)C(=O)O (stereo not drawn) [^177Lu-PSMA-ALB-07, metal not drawn]"
measured_result = 0.40

[[record]]
compound = "Cc1ccc(CCCC(=O)NCCCCC(NC(=O)CN2CCN(CC(=O)O)CCN(CC(=O)O)CCN(CC(=O)O)CC2)C(=O)NCC2CCC(C(=O)NC(Cc3ccc4ccccc4c3)C(=O)NCCCCC(NC(=O)NC(CCC(=O)O)C(=O)O)C(=O)O)CC2)cc1 (stereo not drawn) [^177Lu-PSMA-ALB-06, metal not drawn]"
measured_result = 0.68


###

System: PC-3 PIP/flu tumor-bearing mice
procedure-text: Biodistribution studies in PC-3 PIP/flu tumor-bearing mice
particulars: 96 h p.i.; PC-3 PIP tumor
Here the recorded Tumor-to-blood is given for each entry.
assay-endpoint: Tumor-to-blood

[[record]]
molecule = "O=C(O)CCC(NC(=O)NC(CCCCNC(=O)C(Cc1ccc2ccccc2c1)NC(=O)C1CCC(CNC(=O)C(CCCCNC(=O)CN2CCN(CC(=O)O)CCN(CC(=O)O)CCN(CC(=O)O)CC2)NC(=O)CCCCCCC(=O)NC(CCCCNC(=O)CCCc2ccc(I)cc2)C(=O)O)CC1)C(=O)O)C(=O)O (stereo not shown) [^177Lu-PSMA-ALB-04, metal not drawn]"
measured_result = 5.29

[[record]]
molecule = "O=C(O)CCC(NC(=O)NC(CCCCNC(=O)C(Cc1ccc2ccccc2c1)NC(=O)C1CCC(n2cc(CC(NC(=O)CN3CCN(CC(=O)O)CCN(CC(=O)O)CCN(CC(=O)O)CC3)C(=O)NC(CCCCNC(=O)CCCc3ccc(I)cc3)C(=O)O)nn2)CC1)C(=O)O)C(=O)O (stereo not shown) [^177Lu-PSMA-ALB-01, metal not drawn]"
measured_result = 9.39

[[record]]
molecule = "O=C(O)CCC(NC(=O)NC(CCCCNC(=O)C(Cc1ccc2ccccc2c1)NC(=O)C1CCC(CNC(=O)C(CCCCNC(=O)CCCc2ccc(I)cc2)NC(=O)CN2CCN(CC(=O)O)CCN(CC(=O)O)CCN(CC(=O)O)CC2)CC1)C(=O)O)C(=O)O (stereo not shown) [^177Lu-PSMA-ALB-03, metal not drawn]"
measured_result = 10.3

[[record]]
molecule = "O=C(O)CCC(NC(=O)NC(CCCCNC(=O)C(Cc1ccc2ccccc2c1)NC(=O)C1CCC(CNC(=O)C(CCCCNC(=O)CN2CCN(CC(=O)O)CCN(CC(=O)O)CCN(CC(=O)O)CC2)NC(=O)CC(NC(=O)CC(NC(=O)CCCc2ccc(I)cc2)C(=O)O)C(=O)O)CC1)C(=O)O)C(=O)O (stereo not shown) [^177Lu-PSMA-ALB-05, metal not drawn]"
measured_result = 27.1


###

Test system: PC-3 PIP/flu tumor-bearing mice
procedure-text: Biodistribution studies in PC-3 PIP/flu tumor-bearing mice
particulars: 24 h p.i.
Outcome label depends on Liver relative to 3 % IA/g: at/above gives rule met, below gives rule not met.

[[record]]
compound = "O=C(O)CCC(NC(=O)NC(CCCCNC(=O)C(Cc1ccc2ccccc2c1)NC(=O)C1CCC(CNC(=O)C(CCCCNC(=O)CN2CCN(CC(=O)O)CCN(CC(=O)O)CCN(CC(=O)O)CC2)NC(=O)CCCCCCC(=O)NC(CCCCNC(=O)CCCc2ccc(I)cc2)C(=O)O)CC1)C(=O)O)C(=O)O (stereo not drawn) [^177Lu-PSMA-ALB-04, metal not drawn]"
label = "rule met"

[[record]]
compound = "O=C(O)CCC(NC(=O)NC(CCCCNC(=O)C(Cc1ccc2ccccc2c1)NC(=O)C1CCC(CNC(=O)C(CCCCNC(=O)CCCc2ccc(I)cc2)NC(=O)CN2CCN(CC(=O)O)CCN(CC(=O)O)CCN(CC(=O)O)CC2)CC1)C(=O)O)C(=O)O (stereo not drawn) [^177Lu-PSMA-ALB-03, metal not drawn]"
label = "rule met"

[[record]]
compound = "O=C(O)CCC(NC(=O)NC(CCCCNC(=O)C(Cc1ccc2ccccc2c1)NC(=O)C1CCC(CNC(=O)C(CCCCNC(=O)CN2CCN(CC(=O)O)CCN(CC(=O)O)CCN(CC(=O)O)CC2)NC(=O)CC(NC(=O)CC(NC(=O)CC(NC(=O)CCCc2ccc(I)cc2)C(=O)O)C(=O)O)C(=O)O)CC1)C(=O)O)C(=O)O (stereo not drawn) [^177Lu-PSMA-ALB-07, metal not drawn]"
label = "rule not met"

[[record]]
compound = "O=C(O)CCC(NC(=O)NC(CCCCNC(=O)C(Cc1ccc2ccccc2c1)NC(=O)C1CCC(CNC(=O)C(CCCCNC(=O)CN2CCN(CC(=O)O)CCN(CC(=O)O)CCN(CC(=O)O)CC2)NC(=O)CC(NC(=O)CC(NC(=O)CCCc2ccc(I)cc2)C(=O)O)C(=O)O)CC1)C(=O)O)C(=O)O (stereo not drawn) [^177Lu-PSMA-ALB-05, metal not drawn]"
label = "rule not met"

[[record]]
compound = "Cc1ccc(CCCC(=O)NC(CC(=O)NC(CC(=O)NC(CC(=O)NC(CCCCNC(=O)CN2CCN(CC(=O)O)CCN(CC(=O)O)CCN(CC(=O)O)CC2)C(=O)NCC2CCC(C(=O)NC(Cc3ccc4ccccc4c3)C(=O)NCCCCC(NC(=O)NC(CCC(=O)O)C(=O)O)C(=O)O)CC2)C(=O)O)C(=O)O)C(=O)O)cc1 (stereo not drawn) [^177Lu-PSMA-ALB-08, metal not drawn]"
label = "rule not met"

